- TEST SYSTEM: T1, human IL-13 R130Q variant (R110Q of the mature chain) (human, UniProt P35225 35-146, Biotinylated on amines (NHS-LC-biotin, 4:1) in ELISA, panning and competition assays. The letters are unchanged.)
- T1 construct: R130Q counts from Met 1 of the signal peptide, R110Q on the mature chain; Bought from Peprotech; also called IL-13 R110Q; b-R130Q
- T1 sequence (P35225 35-146 limits assumed, stated change not applied): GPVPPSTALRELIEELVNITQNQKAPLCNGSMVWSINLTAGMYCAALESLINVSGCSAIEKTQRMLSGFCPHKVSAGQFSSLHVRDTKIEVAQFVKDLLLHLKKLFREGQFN
- ASSAY PROCEDURE: single-point (10 nM) phage Fab ELISA on biotinylated IL-13 R130Q
Measured Signal (% of Lc16Hc7) values are reported for all entries that follow.
Field: value (include unit after the number)

[[record]]
binder = "Fab clone 1C09 (IL-13-62 library) (Fab, V domains shown, Fab on phage pIX) VH: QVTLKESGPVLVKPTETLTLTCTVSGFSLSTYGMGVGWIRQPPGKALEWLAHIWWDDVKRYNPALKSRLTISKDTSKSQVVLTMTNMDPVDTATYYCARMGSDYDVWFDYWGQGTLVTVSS VL: EIVLTQSPATLSLSPGERATLSCRASKSISKYLAWYQRKPGQAPRLLIYSGSTLQSGIPARFSGSGSGTDFTLTISSLEPEDFAVYYCQQHNEAPYTFGQGTKLEIK"
parameter = "Signal (% of Lc16Hc7)"
meas_value = "152%"

[[record]]
binder = "Fab clone 1H02 (IL-13-62 library) (Fab, V domains shown, Fab on phage pIX) VH: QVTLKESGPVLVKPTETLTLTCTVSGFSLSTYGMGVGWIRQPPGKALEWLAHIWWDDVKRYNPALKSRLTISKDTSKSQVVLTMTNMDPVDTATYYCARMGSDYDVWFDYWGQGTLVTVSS VL: EIVLTQSPATLSLSPGERATLSCRASKSISKYLAWYQQKPGQAPRLLIYSGSTLQSGIPARFSGSGSGTDFTLTISSLEPEDFAVYYCQQHLLGPYTFGQGTKLEIK"
parameter = "Signal (% of Lc16Hc7)"
meas_value = "148%"


API: the following record is the query input.
In: Reported Signal (% of Lc16Hc7), binder Fab clone 1F11 (IL-13-62 library) (Fab, V domains shown, Fab on phage pIX) VH: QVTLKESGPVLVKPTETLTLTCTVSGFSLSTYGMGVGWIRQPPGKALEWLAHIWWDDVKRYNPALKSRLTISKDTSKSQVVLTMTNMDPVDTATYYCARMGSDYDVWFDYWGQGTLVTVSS VL: EIVLTQSPATLSLSPGERATLSCRASKSISKYLAWYQQKPGQAPRLLIYSGSTLQSGIPARFSGSGSGTDFTLTISSLEPEDFAVYYCQQHSVGPYTFGQGTKLEIK : ____
Out: 108%
